Entries and their measured clearance follow.
measurement_description: Clearance in mouse at 3 mg/kg, iv
Format: ADME, organism-based
stated_conditions: in vivo

| compound | clearance (mL/min/kg) |
| --- | --- |
| CN1CCC(c2ccc(-c3ccc4c(c3)C(=O)N(C(C(=O)Nc3nccs3)c3cccc(F)c3)C4)cc2)CC1 (centres undefined) | 13.9 |
| CN1CCC(c2ccc(-c3ccc4c(c3)C(=O)N(C(C(=O)Nc3nccs3)c3cc(F)ccc3O)C4)cc2)CC1 (centres undefined) | 15.7 |
| O=C(Nc1nccs1)C(c1cc(F)ccc1O)N1Cc2ccc(-c3ccc(N4CCNCC4)cc3)cc2C1=O (centres undefined) | 5 |
| CN1CCN(c2ccc(-c3ccc4c(c3)C(=O)N(C(C(=O)Nc3nccs3)c3cc(F)ccc3O)C4)cc2)CC1 (centres undefined) | 10.3 |
